- Test summary: EMT-state selective cytotoxicity in co-culture – imaging, PC-3E GFP, TEM4-18 mCherry, primary screen (AID 1345086);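 further: normalised mesenchymal count divided by normalised epithelial count so high means epithelial killing; cells exposed to compound for 72 h before imaging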
- Experimental context: PC-3E GFP / TEM4-18 mCherry co-culture, imaging cell counts; at 1 µM; actives lie on both sides; counts scaled to control wells, 1 = unselective
red/green cell ratio (normalised) vs 1: less than gives Yes; not less than gives No.

Past entries and their recorded results:
CC1CCC(NC(=O)N(CCCl)N=O)CC1 (stereo unspecified) = No
N#Cc1ccc(C(c2ccc(C#N)cc2)n2cncn2)cc1 = No
Nc1c2ccccc2nc2ccccc12 = Yes

Incoming: Dear reviewer, please state whether Oc1c(Cl)cc(Cl)c(Cl)c1Cc1c(O)c(Cl)cc(Cl)c1Cl has red/green cell ratio (normalised) strictly beneath 1.
Outgoing: Yes

Incoming: Dear reviewer, please state whether CC1CCN(CCCC(=O)c2ccc(F)cc2)CC1 has red/green cell ratio (normalised) strictly beneath 1.
Outgoing: Yes
